Source of measurements: patent US10717737B2

Could you please report measured IC50 for the items listed next?

Entry N#Cc1ccc(CC2(CN[C@@H]3C[C@H]3c3ccccc3)CCN(CC3(C(=O)O)CC3)CC2)c(F)c1 : IC50 on LSD1 (Homo sapiens (Human)) = < 100 nM

Entry COCC1(CN[C@@H]2C[C@H]2c2ccccc2)CCN(C(=O)N2CCC(O)CC2)CC1 : IC50 on LSD1 (Homo sapiens (Human)) = < 100 nM
